Cited source: patent US11466007B2

# Experimental Details: Test 4: metabolic stability test in human hepatic microsome
# Type: in vitro ADME
# Recorded Conditions: 0.1 mg/mL microsome, 0.1 μmol/L compound, NADPH, 37° C., 30 minutes
Endpoint Name: Metabolic stability in human hepatic microsome

For record O=C1c2ncoc2CCN1CCN1CCC(c2noc3ccccc23)CC1 the listed Metabolic stability in human hepatic microsome is <0.05 mL/min/mg protein

For record Cn1ccc2c1CCN(CCN1CCN(c3nsc4ccccc34)CC1)C2=O the listed Metabolic stability in human hepatic microsome is 0.056 mL/min/mg protein

For record O=C1c2ncccc2CCN1CCN1CCC(c2nsc3ccccc23)CC1 the listed Metabolic stability in human hepatic microsome is <0.01 mL/min/mg protein

For record O=c1c2ncccc2ccn1CCN1CCN(c2nsc3ccccc23)CC1 the listed Metabolic stability in human hepatic microsome is 0.064 mL/min/mg protein

For record COc1cc2c(cn1)C(=O)N(CCN1CCC(c3noc4ccccc34)CC1)CC2 [Example 14] the listed Metabolic stability in human hepatic microsome is <0.01 mL/min/mg protein

Further cases:
For record Cc1cc2ccn(CCN3CCN(c4noc5ccccc45)CC3)c(=O)c2cn1 the listed Metabolic stability in human hepatic microsome is 0.079 mL/min/mg protein

For record CC(CN1CCC(c2noc3cc(F)ccc23)CC1)N1CCc2cccnc2C1=O (stereo not drawn) the listed Metabolic stability in human hepatic microsome is <0.05 mL/min/mg protein

For record O=c1c2cncnc2ccn1CCN1CCC(c2noc3ccccc23)CC1 the listed Metabolic stability in human hepatic microsome is 0.084 mL/min/mg protein

For record Cn1ncc2c1C(=O)N(CCN1CCC(c3noc4ccccc34)CC1)CC2 the listed Metabolic stability in human hepatic microsome is 0.019 mL/min/mg protein

* * *

# Experimental Details: Test 4: metabolic stability test in human hepatic microsome
# Format: in vitro ADME
# Recorded Conditions: 0.1 mg/mL microsome, 0.1 μmol/L compound, NADPH, 37° C., 30 minutes
# Description: Test 4: Metabolic Stability Test in Human Hepatic Microsome The stability of the present compound in human hepatic microsome metabolism was evaluated as mentioned below. Human hepatic microsome was obtained from Xenontech. […] The residual ratio of the test compound in each sample after 30 minutes was measured by LC-MS, and the metabolic stability in human hepatic microsome was calculated from the following formula. […]
Metabolic stability in human hepatic microsome for assorted molecules

# count of solved cases: 3
For record Cn1cc2c(n1)CCCN(CCN1CCC(c3noc4ccccc34)CC1)C2=O [Example 41] the listed Metabolic stability in human hepatic microsome is <0.01 mL/min/mg protein

For record O=C1c2cccnc2CCN1CCN1CCN(c2noc3ccccc23)CC1 [Example 153] the listed Metabolic stability in human hepatic microsome is <0.05 mL/min/mg protein

For record O=C1c2cccnc2CCN1CCN1CCC(c2noc3ccccc23)CC1 [Example 128] the listed Metabolic stability in human hepatic microsome is <0.05 mL/min/mg protein

Further cases:
For record O=C1c2cn[nH]c2CCN1CCN1CCC(c2noc3ccccc23)CC1 [Example 189] the listed Metabolic stability in human hepatic microsome is <0.05 mL/min/mg protein

For record CC1CN(CCN2CCC(c3noc4ccccc34)CC2)C(=O)c2ccn(C)c21 (centres unmarked) [Example 82] the listed Metabolic stability in human hepatic microsome is 0.072 mL/min/mg protein

* * *

# Experimental Details: Test 10: intracerebral transferability of rats (Kp,uu,brain)
# Type: in vivo, SD or WKY rats
# Recorded Conditions: rat, brain and plasma, unbound drug concentration ratio brain/plasma, s.c. or oral, 0.5, 1 or 2 hours
Kp uu at 2 h for assorted compounds

For record Cn1cc2c(n1)CCN(CCN1CCN(c3nsc4ccccc34)CC1)C2=O [Example 36] the listed Kp uu at 2 h is 0.08

Further cases:
For record Cc1nc2c(o1)C(=O)N(CCN1CCC(c3noc4ccccc34)CC1)CC2 [Example 35] the listed Kp uu at 2 h is 1.44

For record Cn1ncc2c1CCCN(CCN1CCC(c3noc4ccccc34)CC1)C2=O [Example 43] the listed Kp uu at 2 h is 0.18
